# assay-target: T1, NHERF1 PDZ2 domain (133-300) (human, UniProt O14745 133-300)
# T1 sequence (looked up): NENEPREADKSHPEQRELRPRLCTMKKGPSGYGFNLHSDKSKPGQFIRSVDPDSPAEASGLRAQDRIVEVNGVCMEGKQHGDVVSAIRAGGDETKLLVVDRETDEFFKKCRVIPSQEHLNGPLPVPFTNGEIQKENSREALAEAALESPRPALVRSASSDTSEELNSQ
# assay-procedure: fluorescence polarisation
Ends that are not written are not given here. * marks the point of attachment. FITC = O=C1OC2(c3ccc(O)cc3Oc3cc(O)ccc32)c2ccc(NC(=S)*)cc21
readout: Kd (nM)
Give bare numbers, in nM.

For the binder {FITC}-LQEEWETVM [FITC-labeled carboxy-terminal PTHR 9-residue peptide] , give its measured Kd value. 600
